Cited source: patent US20210171624A1

Biological target: T1, recombinant human IFN-γ protein (human, UniProt P01579 24-166, limits assumed)
T1 construct: Bought protein; also called interferon gamma; R&D systems 285-IF-100
T1 sequence: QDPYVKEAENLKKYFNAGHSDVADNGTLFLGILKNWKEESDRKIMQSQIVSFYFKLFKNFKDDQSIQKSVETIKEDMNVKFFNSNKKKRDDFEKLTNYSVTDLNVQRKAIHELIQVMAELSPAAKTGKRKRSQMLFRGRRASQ
Assay: BLI (Octet RED96), mAb captured on AHC biosensor, recombinant human IFN-γ in solution, 1:1 model; second experiment
Protocol: Antibody-binding kinetic rate constants (kₐ and kd) were measured by Bio-Layer Interferometry (BLI, ForteBio Octet RED96). […] Rate constants were calculated by curve fitting analyses (1:1 Langmuir model) of binding response with a 5-minute association and 15-minute dissociation interaction time.
readout: Kd (nM)
Report only the number, with the unit nM understood.

{"binder": "antibody 2A6_A (antibody, human IgG1, V domains shown, removes the N-glycosylation site of the VH; human IgG1 lambda; also called c2A6_A) VH: EVQLVESGGGLVKPGDSLTVSCVASGFTFSNYFIHWVRQAPGKGLEWVATISGRTKYMFYSDSLRGRFTVSRDNAANSVYLHMSSLRGEDTALYYCVRGYDHSDSNSAADLLHWGRGTLVTVSS VL: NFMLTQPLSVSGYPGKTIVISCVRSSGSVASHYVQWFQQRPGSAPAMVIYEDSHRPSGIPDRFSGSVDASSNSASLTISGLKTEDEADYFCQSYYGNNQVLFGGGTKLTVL", "Kd, nM": 0.0223}
{"binder": "antibody 2A6_Q (antibody, human IgG1, V domains shown, removes the N-glycosylation site of the VH; human IgG1 lambda; also called c2A6_Q) VH: EVQLVESGGGLVKPGDSLTVSCVASGFTFSNYFIHWVRQAPGKGLEWVATISGRTKYMFYSDSLRGRFTVSRDNAQNSVYLHMSSLRGEDTALYYCVRGYDHSDSNSAADLLHWGRGTLVTVSS VL: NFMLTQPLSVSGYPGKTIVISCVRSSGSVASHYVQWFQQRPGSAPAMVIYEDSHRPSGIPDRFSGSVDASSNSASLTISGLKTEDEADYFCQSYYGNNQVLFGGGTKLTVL", "Kd, nM": 0.0217}
{"binder": "antibody 2B6 (antibody, human IgG1, V domains shown, Human IgG1 lambda) VH: EVQLVESGGGLVKPGGSLRLSCAASGFPFSRYSMHWVRQAPGKGLEWVSSMTSRTNHKYYADSLKGRFLISRDNDRDSLYLEMNSLGVEDTAIYFCARGYDTSGSDSGVDFQYWGQGTLVTVSS VL: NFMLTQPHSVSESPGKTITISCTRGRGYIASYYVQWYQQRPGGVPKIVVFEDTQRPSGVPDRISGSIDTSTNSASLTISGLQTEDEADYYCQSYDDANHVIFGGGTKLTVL", "Kd, nM": 0.0172}

// moving on: another record for Kd
Give its Kd value. Item: antibody 2A6 (antibody, human IgG1, V domains shown, partial N-linked glycosylation at Asn-76 of the VH, Human antibody from a single B cell, cloned into human IgG1 lambda expression vectors and made in FreeStyle 293-F cells) VH: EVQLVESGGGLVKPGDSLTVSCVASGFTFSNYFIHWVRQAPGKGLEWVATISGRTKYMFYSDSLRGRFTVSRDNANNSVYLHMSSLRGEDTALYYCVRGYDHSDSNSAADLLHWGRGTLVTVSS VL: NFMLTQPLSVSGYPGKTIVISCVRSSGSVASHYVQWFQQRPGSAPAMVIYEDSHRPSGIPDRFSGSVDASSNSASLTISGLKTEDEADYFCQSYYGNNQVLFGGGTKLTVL
0.0187
